Reference source: paper PMC5740067

# ASSAY TARGET: NocT WT (Agrobacterium fabrum, UniProt P35120)
# Construct: Cloning of mature OccJ, NocT-G97S, OccJ-S91G, OccJ-N202D, LAO and LAO-Q122A; made in house
# Sequence (P35120 26-283): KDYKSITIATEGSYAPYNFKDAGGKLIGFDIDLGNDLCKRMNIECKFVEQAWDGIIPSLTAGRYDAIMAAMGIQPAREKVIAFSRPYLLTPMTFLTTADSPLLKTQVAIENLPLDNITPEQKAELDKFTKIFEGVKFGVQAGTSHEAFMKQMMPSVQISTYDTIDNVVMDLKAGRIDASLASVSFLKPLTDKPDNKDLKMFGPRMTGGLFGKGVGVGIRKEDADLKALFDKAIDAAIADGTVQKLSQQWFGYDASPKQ
# Format: binding, Agrobacterium tumefaciens
# SETTINGS: ITC, 20 °C
ATTRIBUTE MEASURED: Entropy (ΔS)
// return the numeric value with its unit appended

Example entries and their recorded answers appear below.
* NC(N)=NCCC[C@H](NCC(=O)O)C(=O)O [noroctopine] | 21.8 cal/mol/deg
* C[C@@H](N[C@@H](CCCN)C(=O)O)C(=O)O [octopinic acid] | 12.0 cal/mol/deg
* NCCC[C@H](NCC(=O)O)C(=O)O [noroctopinic acid] | 23.3 cal/mol/deg

For the next question, use this molecule.
Q: Look up Entropy (ΔS): N=C(N)NCCCC[C@H](NCC(=O)O)C(=O)O [homo-noroctopine]
Result: 14.7 cal/mol/deg

---

# ASSAY TARGET: NocT WT (Agrobacterium fabrum, UniProt P35120)
# Construct: Cloning of mature OccJ, NocT-G97S, OccJ-S91G, OccJ-N202D, LAO and LAO-Q122A; made in house
# Type: binding, Agrobacterium tumefaciens
# SETTINGS: ITC, 20 °C
ATTRIBUTE MEASURED: Kd (µM)
Expressed in µM, but write only the number.

* N=C(N)NCCCC[C@H](NCC(=O)O)C(=O)O [homo-noroctopine] | 79
* C[C@@H](N[C@@H](CCCN)C(=O)O)C(=O)O [octopinic acid] | 4.4
* NCCC[C@H](NCC(=O)O)C(=O)O [noroctopinic acid] | 23

Please examine the following record next.
Q: I'd like to know its Kd. The compound in question is NC(N)=NCCC[C@H](NCC(=O)O)C(=O)O [noroctopine]
Result: 78

---

# ASSAY TARGET: OccJ S91G (Agrobacterium tumefaciens, UniProt P0A4F8, S91G)
# Construct: The mature LAO expression plasmid, LAO-Q122A, OccJ-S91G and OccJ-N202D were chemically synthesized; pET-28a); host or cells: E. coli BL21
# EXPERIMENTAL PROTOCOL: OccJ S91G ligand binding, fluorescence titration
# SETTINGS: intrinsic protein fluorescence titration; 20 °C; pH 8.0
# Protocol: Binding of ligands to OccJ, NocT, LAO and protein mutants was monitored by autofluorescence by exciting the protein at a wavelength of 295 nm and monitoring the quenching of fluorescence emission of tryptophans at 335 nm. All experiments were performed at 20 °C in 96 wells plates (1/2 Area Plate-96F, Perkin Elmer) using Tecan Infinite M1000 reader (Tecan), in 50 mM Tris-HCl pH 8.0, 150 mM NaCl buffer with a fixed amount of proteins (1 µM) and increasing concentrations of ligand. […]
ATTRIBUTE MEASURED: K D (F)

• N=C(N)NCCC[C@H](N)C(=O)O = can no longer bind
• NCCCC[C@H](N)C(=O)O = can no longer bind
• NCCC[C@H](N)C(=O)O = can no longer bind

---

# ASSAY TARGET: OccJ WT (Agrobacterium tumefaciens)
# Construct: The mature PBP OccJ (256 aa without the signal peptide) expression plasmid was obtained by cloning the occJ gene lacking the first twenty residues; hexahistidine (C); made in house; host or cells: E. coli BL21
# EXPERIMENTAL PROTOCOL: OccJ WT ligand binding, isothermal titration microcalorimetry
# SETTINGS: ITC, 20 °C
Yes means recorded Enthalpy (ΔH) is -5 kcal/mol or above; No means it is below -5 kcal/mol.

Worked cases, answers included:
* C[C@@H](N[C@@H](CCCN)C(=O)O)C(=O)O [octopinic acid] | No
* NC(N)=NCCC[C@H](NCC(=O)O)C(=O)O [noroctopine] | Yes

Q: Given the entry C[C@@H](N[C@@H](CCCCN)C(=O)O)C(=O)O [lysopine] , answer whether its Enthalpy (ΔH) meets or surpasses -5 kcal/mol.
Result: Yes

---

# ASSAY TARGET: OccJ WT (Agrobacterium tumefaciens, UniProt P0A4F8)
# Construct: The mature PBP OccJ (256 aa without the signal peptide) expression plasmid was obtained by cloning the occJ gene lacking the first twenty residues; hexahistidine (C); made in house; host or cells: E. coli BL21
# Sequence (P0A4F8 21-276): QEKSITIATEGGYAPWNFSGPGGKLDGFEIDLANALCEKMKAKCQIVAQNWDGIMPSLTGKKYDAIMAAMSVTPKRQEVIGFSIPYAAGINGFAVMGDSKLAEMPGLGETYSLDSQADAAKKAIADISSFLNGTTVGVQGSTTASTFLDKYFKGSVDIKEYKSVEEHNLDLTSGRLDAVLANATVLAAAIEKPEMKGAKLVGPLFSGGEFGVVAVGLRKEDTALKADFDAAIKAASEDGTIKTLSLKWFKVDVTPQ
# EXPERIMENTAL PROTOCOL: OccJ WT ligand binding, isothermal titration microcalorimetry
# SETTINGS: ITC, 20 °C
Parameter Free enthalpy (ΔG): see the listing below.
Your answer should be a plain number; it is taken to be in kcal/mol.

• C[C@@H](N[C@@H](CCCN)C(=O)O)C(=O)O [octopinic acid] = -9.957

Q: // fetch OccJ WT (Agrobacterium tumefaciens, UniProt P0A4F8) Free enthalpy (ΔG) for CC(N[C@@H](Cc1cnc[nH]1)C(=O)O)C(=O)O (stereo partly shown) [histopine]
Result: -4.664

Q: What value of Free enthalpy (ΔG) on OccJ WT (Agrobacterium tumefaciens, UniProt P0A4F8) does C[C@@H](N[C@@H](CCCCN)C(=O)O)C(=O)O [lysopine] have?
Result: -9.287

Q: Give the reported Free enthalpy (ΔG) for N=C(N)NCCC[C@H](N)C(=O)O [L-arginine] (system: OccJ WT (Agrobacterium tumefaciens, UniProt P0A4F8)).
Result: -5.964

Q: Query Free enthalpy (ΔG) on OccJ WT (Agrobacterium tumefaciens, UniProt P0A4F8) for N=C(N)NCCCC[C@H](NCC(=O)O)C(=O)O [homo-noroctopine]
Result: -6.322

Q: API: value(readout= Free enthalpy (ΔG), system= OccJ WT (Agrobacterium tumefaciens, UniProt P0A4F8), query= C[C@@H](N[C@@H](CCCN=C(N)N)C(=O)O)C(=O)O [octopine] )
Result: -10.817

Q: Tell me reported Free enthalpy (ΔG) for NC(N)=NCCC[C@H](NCC(=O)O)C(=O)O [noroctopine] , tested with OccJ WT (Agrobacterium tumefaciens, UniProt P0A4F8).
Result: -9.171

Q: # query: Free enthalpy (ΔG) | item NCCCC[C@H](N)C(=O)O [L-lysine] | system: OccJ WT (Agrobacterium tumefaciens, UniProt P0A4F8)
Result: -5.565

Q: Give recorded Free enthalpy (ΔG) with OccJ WT (Agrobacterium tumefaciens, UniProt P0A4F8) for the following compound: NCCC[C@H](N)C(=O)O [ornithine]
Result: -5.88

Q: Give Free enthalpy (ΔG) (OccJ WT (Agrobacterium tumefaciens, UniProt P0A4F8)) of the following compound: NCCC[C@H](NCC(=O)O)C(=O)O [noroctopinic acid]
Result: -9.136

---

# ASSAY TARGET: OccJ WT (Agrobacterium tumefaciens)
# Construct: The mature PBP OccJ (256 aa without the signal peptide) expression plasmid was obtained by cloning the occJ gene lacking the first twenty residues; hexahistidine (C); made in house; host or cells: E. coli BL21
# EXPERIMENTAL PROTOCOL: OccJ WT ligand binding, isothermal titration microcalorimetry
# SETTINGS: ITC, 20 °C
pKd: −log10 of the molar value.
Mark yes (1) for reported pKd of 7 or greater; mark no (0) for anything smaller.

- NCCCC[C@H](N)C(=O)O: no (0)
- N=C(N)NCCC[C@H](N)C(=O)O: no (0)
- C[C@@H](N[C@@H](CCCN=C(N)N)C(=O)O)C(=O)O: yes (1)

Field: next molecule
Q: I'd appreciate it if you could say whether C[C@@H](N[C@@H](CCCN)C(=O)O)C(=O)O has pKd at least equal to 7.
Result: yes (1)

---

# ASSAY TARGET: OccJ WT (Agrobacterium tumefaciens, UniProt P0A4F8)
# Construct: The mature PBP OccJ (256 aa without the signal peptide) expression plasmid was obtained by cloning the occJ gene lacking the first twenty residues; hexahistidine (C); made in house; host or cells: E. coli BL21
# EXPERIMENTAL PROTOCOL: OccJ WT ligand binding, isothermal titration microcalorimetry
# SETTINGS: ITC, 20 °C
Rule: met for Entropy (ΔS) not less than 10 cal/mol/deg, not met for anything less.

- N=C(N)NCCCC[C@H](NCC(=O)O)C(=O)O: not met

Q: // inclusive: Entropy (ΔS) at least 10 cal/mol/deg? input: NCCC[C@H](N)C(=O)O
Result: met

Q: Decide: is the reported value of Entropy (ΔS) for C[C@@H](N[C@@H](CCCCN)C(=O)O)C(=O)O equal to or greater than 10 cal/mol/deg?
Result: met

Q: Could you please find out whether NCCC[C@H](NCC(=O)O)C(=O)O has Entropy (ΔS) that meets 10 cal/mol/deg or exceeds it?
Result: not met

Q: # check: Entropy (ΔS) of NC(N)=NCCC[C@H](NCC(=O)O)C(=O)O is greater than or equal to 10 cal/mol/deg
Result: met

Q: Given the entry C[C@@H](N[C@@H](CCCN=C(N)N)C(=O)O)C(=O)O , answer whether its Entropy (ΔS) meets or surpasses 10 cal/mol/deg.
Result: met

Q: Exam item: decide whether the reported Entropy (ΔS) for NCCCC[C@H](N)C(=O)O is at least 10 cal/mol/deg.
Result: not met
